run-description: Stability in aqueous solutions (sodium phosphate buffer, 37° C.)
Format: physicochemical
reported-conditions: buffer, pH 8, Table 3; pH 8; read-out: Half-life in aqueous solution (converted)
endpoint-name: half-life (h)
Just the number in h, nothing appended.

Form field half-life, entry `C=C(C)[C@@H]1CCC(C)=C[C@H]1c1c(O)cc(CCCCC)cc1OC(=O)NCCN(C)C` : 1.09

###

run-description: Stability in aqueous solutions (sodium phosphate buffer, 37° C.)
Type: physicochemical
reported-conditions: buffer, Table 3 footnote f; 20% of ethanol in the solution; read-out: Half-life in aqueous solution with ethanol
endpoint-name: half-life (h)
# output: bare number, implied unit h

What the record says about C=C(C)[C@@H]1CCC(C)=C[C@H]1c1c(OC(=O)N2CCN(C)CC2)cc(CCCCC)cc1OC(=O)N1CCN(C)CC1 [CBDp14] : half-life is 50
